pIC50 listing for selected compounds.
target: HLA A*3001 (Homo sapiens, UniProt P04439, D140H/D185E/E176W/F33S/G80R/H175R/K168Q/R138E/R41S); test: biochemical
Sequence (P04439 25-365 limits assumed, stated change not applied): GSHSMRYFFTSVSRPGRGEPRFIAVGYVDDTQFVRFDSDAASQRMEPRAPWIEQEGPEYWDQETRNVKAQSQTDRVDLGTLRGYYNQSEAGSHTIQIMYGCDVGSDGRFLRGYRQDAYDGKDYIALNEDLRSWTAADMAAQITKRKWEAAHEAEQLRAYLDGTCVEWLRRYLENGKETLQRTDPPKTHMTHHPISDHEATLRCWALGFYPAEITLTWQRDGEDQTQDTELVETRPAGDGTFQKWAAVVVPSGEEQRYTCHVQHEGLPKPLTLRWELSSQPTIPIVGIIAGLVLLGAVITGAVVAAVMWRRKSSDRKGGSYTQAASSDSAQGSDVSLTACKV
pIC50: −log10 of the molar value. Where a SMILES comes first, the peptide text is derived from it.
Metric: pIC50

* CC(C)C[C@H](NC(=O)[C@@H](N)CCCNC(=N)N)C(=O)N[C@@H](CCCCN)C(=O)N[C@@H](CC(=O)O)C(=O)N[C@@H](Cc1ccc(O)cc1)C(=O)N[C@@H](CCC(N)=O)C(=O)N[C@@H](Cc1c[nH]cn1)C(=O)N[C@@H](Cc1ccccc1)C(=O)N[C@H](C(=O)O)C(C)C [3102.0208] (H-RLKDYQHFV-OH) | 9.41
* CSCC[C@H](NC(=O)[C@@H](N)CCCCN)C(=O)N[C@@H](CCCNC(=N)N)C(=O)N[C@@H](CC(=O)O)C(=O)N[C@H](C(=O)N[C@@H](CC(C)C)C(=O)N1CCC[C@H]1C(=O)N[C@@H](C)C(=O)N[C@@H](CCCCN)C(=O)O)[C@@H](C)O [3102.0121] (H-KMRDTLPAK-OH) | 8.80
* CC[C@H](C)[C@H](NC(=O)[C@H](CC(C)C)NC(=O)[C@H](CCCNC(=N)N)NC(=O)[C@H](CCC(N)=O)NC(=O)[C@H](CCCNC(=N)N)NC(=O)[C@H](Cc1ccc(O)cc1)NC(=O)[C@@H](N)CCCNC(=N)N)C(=O)N[C@@H](CO)C(=O)N[C@@H](CC(C)C)C(=O)O [3102.0110] (H-RYRQRLISL-OH) | 8.28
* CC[C@H](C)[C@H](NC(=O)[C@@H](NC(=O)[C@@H](N)CCSC)[C@@H](C)O)C(=O)N[C@@H](CCCNC(=N)N)C(=O)N[C@@H](CCC(=O)O)C(=O)N[C@@H](Cc1ccccc1)C(=O)N1CCC[C@H]1C(=O)N[C@@H](CCCNC(=N)N)C(=O)N[C@@H](CCCCN)C(=O)O [3102.0225] (H-MTIREFPRK-OH) | 8.80
* CSCC[C@H](NC(=O)[C@H](CC(N)=O)NC(=O)[C@H](CCCNC(=N)N)NC(=O)[C@@H](NC(=O)[C@@H](N)CCCNC(=N)N)[C@@H](C)O)C(=O)N[C@@H](Cc1ccccc1)C(=O)N[C@@H](CCCNC(=N)N)C(=O)N[C@@H](CCCCN)C(=O)N[C@@H](CCCCN)C(=O)O [3102.0060] (H-RTRNMFRKK-OH) | 10.05
* C[C@@H](O)[C@H](N)C(=O)N[C@H](C(=O)N[C@@H](CCCCN)C(=O)N[C@@H](CC(N)=O)C(=O)NCC(=O)N[C@@H](CCC(N)=O)C(=O)N1CCC[C@H]1C(=O)N[C@@H](CCCNC(=N)N)C(=O)N[C@@H](CCCCN)C(=O)O)[C@@H](C)O [3102.0252] (H-TTKNGQPRK-OH) | 9.64
* CC[C@H](C)[C@H](NC(=O)[C@H](Cc1ccccc1)NC(=O)[C@H](Cc1ccccc1)NC(=O)[C@H](CO)NC(=O)[C@H](CC(N)=O)NC(=O)[C@H](CO)NC(=O)[C@H](CC(C)C)NC(=O)[C@@H](N)Cc1c[nH]cn1)C(=O)N[C@@H](CCCCN)C(=O)O [3102.0086] (H-HLSNSFFIK-OH) | 7.77
* CC[C@H](C)[C@H](NC(=O)[C@@H]1CCCN1C(=O)CNC(=O)[C@H](CCSC)NC(=O)[C@H](CCCCN)NC(=O)[C@H](CCC(N)=O)NC(=O)[C@@H](N)CCCCN)C(=O)N[C@@H](Cc1ccc(O)cc1)C(=O)N[C@@H](C)C(=O)O [3102.0136] (H-KQKMGPIYA-OH) | 7.66
* CC(C)C[C@H](NC(=O)[C@H](CO)NC(=O)[C@@H](N)CCCCN)C(=O)N[C@@H](Cc1ccc(O)cc1)C(=O)N[C@@H](CO)C(=O)N[C@@H](Cc1c[nH]cn1)C(=O)N[C@@H](CCC(N)=O)C(=O)N[C@@H](CC(C)C)C(=O)N[C@H](C(=O)O)C(C)C [3102.0103] (H-KSLYSHQLV-OH) | 7.92
* CC(C)C[C@H](NC(=O)[C@H](Cc1ccccc1)NC(=O)[C@@H](NC(=O)[C@H](Cc1ccc(O)cc1)NC(=O)[C@H](CCCNC(=N)N)NC(=O)[C@@H](NC(=O)[C@@H](N)CC(N)=O)C(C)C)C(C)C)C(=O)N[C@@H](Cc1ccc(O)cc1)C(=O)N[C@@H](CCCCN)C(=O)O [3102.0198] (H-NVRYVFLYK-OH) | 8.00
* CC(C)[C@H](NC(=O)[C@H](Cc1c[nH]cn1)NC(=O)[C@@H](NC(=O)[C@H](CC(=O)O)NC(=O)[C@H](CCCCN)NC(=O)[C@H](CO)NC(=O)[C@@H](N)CCCNC(=N)N)[C@@H](C)O)C(=O)N[C@@H](Cc1ccccc1)C(=O)N[C@@H](C)C(=O)O [3102.0271] (H-RSKDTHVFA-OH) | 10.72
* CC[C@H](C)[C@H](NC(=O)[C@H](C)NC(=O)[C@H](CCCNC(=N)N)NC(=O)[C@@H](NC(=O)[C@@H](N)CCCNC(=N)N)[C@@H](C)O)C(=O)N[C@@H](CC(N)=O)C(=O)N[C@@H](CCCCN)C(=O)N[C@@H](Cc1ccc(O)cc1)C(=O)N[C@@H](CO)C(=O)O [3102.0141] (H-RTRAINKYS-OH) | 7.89
* N=C(N)NCCC[C@H](NC(=O)CNC(=O)[C@@H](N)CCCCN)C(=O)N[C@@H](CCCNC(=N)N)C(=O)N[C@@H](CCC(N)=O)C(=O)N[C@@H](Cc1ccc(O)cc1)C(=O)N[C@@H](Cc1ccccc1)C(=O)N[C@@H](Cc1ccc(O)cc1)C(=O)NCC(=O)O [3102.0035] (H-KGRRQYFYG-OH) | 8.54
